# Assay overview: collision cross section of modified peptide (TIMS, N2, iRT-aligned); higher = larger / more extended gas-phase ion
# Measurement conditions: charge state: 2; modification: Hydroxyproline
± gives the standard deviation.
Metric name: collision cross section
Provide a numeric answer, followed by its unit.

Indicate its recorded collision cross section; the substance in question is GDAGEPGR [_GDAGEP(Hydroxyproline)GR_]
292.85 ± 1.1 Å²

Indicate its recorded collision cross section; the substance in question is LGVPGLPGYPGR [_LGVPGLPGYP(Hydroxyproline)GR_]
362.53 ± 0.8 Å²

Indicate its recorded collision cross section; the substance in question is RGPPGAK [_RGPP(Hydroxyproline)GAK_]
303.1 ± 0.0067 Å²

Indicate its recorded collision cross section; the substance in question is GERGPPGPPGK [_GERGPPGPP(Hydroxyproline)GK_]
326.03 ± 0.88 Å²

Indicate its recorded collision cross section; the substance in question is PGPKGEAGPTGPQGEPGVR [_P(Hydroxyproline)GPKGEAGPTGPQGEPGVR_]
432.55 ± 0.34 Å²

Indicate its recorded collision cross section; the substance in question is KVQFAPEK [_KVQFAP(Hydroxyproline)EK_]
331.99 ± 1.4 Å²

Indicate its recorded collision cross section; the substance in question is GDQGEPGPSGNPGK [_GDQGEPGPSGNP(Hydroxyproline)GK_]
343.56 ± 0.79 Å²

Indicate its recorded collision cross section; the substance in question is VQFAPEK [_VQFAP(Hydroxyproline)EK_]
316.39 ± 1.9 Å²

Indicate its recorded collision cross section; the substance in question is FPGVGVLPGVPTGAGVKPK [_FPGVGVLPGVPTGAGVKP(Hydroxyproline)K_]
440.08 ± 1.4 Å²

Indicate its recorded collision cross section; the substance in question is GKLGVPGLPGYPGR [_GKLGVP(Hydroxyproline)GLPGYPGR_]
384.86 ± 0.79 Å²

Indicate its recorded collision cross section; the substance in question is VGVEAKQPNSAIR [_VGVEAKQP(Hydroxyproline)NSAIR_]
405.11 ± 0.27 Å²

Indicate its recorded collision cross section; the substance in question is GEKGDPGLIGPK [_GEKGDP(Hydroxyproline)GLIGPK_]
375.69 ± 1.9 Å²

Indicate its recorded collision cross section; the substance in question is YTAILNQIPSHSSSIR [_YTAILNQIP(Hydroxyproline)SHSSSIR_]
473.92 ± 0.82 Å²

Indicate its recorded collision cross section; the substance in question is PPGFSPFRSSR [_PP(Hydroxyproline)GFSPFRSSR_]
367.16 Å²

Indicate its recorded collision cross section; the substance in question is DYQPGITFIVVQKR [_DYQP(Hydroxyproline)GITFIVVQKR_]
449.25 ± 1.9 Å²

Indicate its recorded collision cross section; the substance in question is PGPVGPPGSGGLK [_PGPVGPP(Hydroxyproline)GSGGLK_]
349.24 ± 3.9 Å²

Indicate its recorded collision cross section; the substance in question is GDRGEIGPPGPR [_GDRGEIGPP(Hydroxyproline)GPR_]
368.56 ± 1.9 Å²

Indicate its recorded collision cross section; the substance in question is LGVPGLPGYPGRQGPK [_LGVPGLP(Hydroxyproline)GYPGRQGPK_]
416.79 ± 1.1 Å²

Indicate its recorded collision cross section; the substance in question is GPPGPAGPSGESR [_GPP(Hydroxyproline)GPAGPSGESR_]
344.62 ± 1.9 Å²

Indicate its recorded collision cross section; the substance in question is GEQGEPGAPGIR [_GEQGEP(Hydroxyproline)GAPGIR_]
349.07 ± 0.25 Å²

Indicate its recorded collision cross section; the substance in question is GEQGEPGAPGIRTGIQGLK [_GEQGEPGAP(Hydroxyproline)GIRTGIQGLK_]
450.73 ± 0.4 Å²
